This section presents binders with their documented normalized maximum binding nm shift values.
- Assay System: T1, Human VSIG4-L-Fc (human)
- T1 construct: also called hVSIG4-L-Fc; hVSIG4-L
- T1 sequence (chain, as listed by the source limits assumed): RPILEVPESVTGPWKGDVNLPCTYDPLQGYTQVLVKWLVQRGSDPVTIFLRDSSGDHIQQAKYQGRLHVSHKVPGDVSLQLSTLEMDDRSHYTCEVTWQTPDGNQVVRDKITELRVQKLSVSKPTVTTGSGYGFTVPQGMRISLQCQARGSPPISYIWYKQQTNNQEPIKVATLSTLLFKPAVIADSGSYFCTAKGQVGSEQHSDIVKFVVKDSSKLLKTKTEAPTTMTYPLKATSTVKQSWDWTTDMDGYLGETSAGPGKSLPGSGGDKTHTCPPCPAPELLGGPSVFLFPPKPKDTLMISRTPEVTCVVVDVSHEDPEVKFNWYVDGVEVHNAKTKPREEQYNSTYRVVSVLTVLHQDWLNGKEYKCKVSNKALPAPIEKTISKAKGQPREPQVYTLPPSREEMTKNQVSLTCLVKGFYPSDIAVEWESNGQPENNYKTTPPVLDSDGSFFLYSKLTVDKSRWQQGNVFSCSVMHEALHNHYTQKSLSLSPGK
- Assay Summary: BLI binning on hVSIG4-L-Fc, competitor 14D12 first;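 further: normalized to binding of second antibody without first competitor antibody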
Reply numerically in normalized, unit not repeated.

13H11 mouse/human chimeric IgG4 (S228P) kappa (antibody, V domains shown) VH: QIQLVQSGPELKKPGETVKISCKASGYTFENFGMNWVKQAPGKGLKWMGWINTYTGEATYADDFKGRFAFSLETSASTAYLQINNLKNEDTATYFCARDGGFRHFDVWGAGTTVTVSS VL: ETTVTQSPASLSVATGEKVTIRCITSTDIDDDMNWYQQKPGEPPKLLISEGNTLRPGVPSRFSSSGYGTDFVFTIENMLSEDVADYYCLQSDNLPLTFGAGTKLELKR
0.69

Please give the measured normalized maximum binding nm shift for this binder: 12A08 mouse/human chimeric IgG4 (S228P) kappa (antibody, V domains shown) VH: EVMLVESGGGLVKPGGSLKLSCAASGFTFDDFYMYWVRQTPEKRLEWVASISDGGTYTYYPDSVKGRFTISRDNAKNTLYLQLSSLKSEDTAMYYCARGVDKYYYAMDYWGQGTSVTVSS VL: QILLTQSPAIMSASPGEKVTITCSASSSVSYMHWFQQKPGTSPKLWIYSTSNLASGVPARFSGSGSGTSYSLTISRMEAEDAATYYCQQRSSYPLTFGAGTKLELKR
0.7

Please do the same for 14C05 mouse/human chimeric IgG4 (S228P) kappa (antibody, V domains shown) VH: EVMLVESGPELKKPGETVKISCKASGYTFTNYGMNWVKQAPGKGLKWMGSINTYTGEATYADDFKGRFAFSLETSANTAYLQIDNLKNEDTATYFCARGDYYGRGTWFAYWGQGTLVTVSA VL: ETTVTQSHKFMSTSVGDRVSITCKASQDVSTAVAWYQQKPGQSPKLLIYSASYRYPGVPDRFTGSGSGTDFTFTISSVQAEDLAVYYCQQDYSSPWTFGGGTKLEIKR as well.
0.07

Follow-up item: 12A12 mouse/human chimeric IgG4 (S228P) kappa (antibody, V domains shown) VH: QVQMKQSGAELAKPGASVKMSCKASGYTFTNYWMHWVKQRPGQGLEWIGYINPSTGYTDYNQNFKDRATLTADKSSSTAYMQLSSLTSEDSAVYYCIRGSDYYGRDYWGQGTTLTVSS VL: DIQMTQTTSSLSASLGDRVTISCRASQDISNYLNWYQQKPDGTLKLLIYYTSRLHSGVPSRFSGSGSGTDYSLTISNLEQEDIATYFCRQGNTLPWTFGGGTKLEIKR
0.7

Similarly, 15C03 mouse/human chimeric IgG4 (S228P) kappa (antibody, V domains shown) VH: EVKLLESGPGLVKPSQSLSLTCTVTGYSITSDYAWNWIRQFPGNKLEWMGYISYSGSTRYNPSLKSRISITRDTSNNQFFLQLNSVTTEDTATYYCARSGYAAMDYWGQGTSVTVSS VL: ENVLTQSPAIMSASPGEKVTMTCRASSSVSSSYLHWYQQKSGASPKLWIYSTSNLASGVPARFSGSGSGTSYSLTISSVEAEDAATYYCQQYSGYPLTFGSGTKLEIKR ?
0.41
